Assay: soluble on expression in E. coli; label from the status in PepcDB or PDB records

[
  {
    "Primary sequence": "MAHHHHHHMFYMFLTRNDHQDRRRESPPPTPKKHGASFLRRIHLGEFSGRTICISWETLVEKHEWRDCAKETLLALSSNMIVYLMCHISNANEKGKVLSMVKDIPQLARHNILFCETEKGYEAFSRQIKPAILVTHDSAQAEFLSLVLPNVVLVGSSATGSAMTSISSLSELLF",
    "soluble on expression in E. coli": "not soluble"
  },
  {
    "Primary sequence": "MGSDKIHHHHHHMSDIESLGEAAGLFEEPEDFLPPPPKPHFAEYQRSHITKESKSDVKDIKLRLVGTSPLWGHLLWNAGIYTANHLDSHPELIKGKTVLELGAAAALPSVICALNGAQMVVSTDYPDPDLMQNIDYNIKSNVPEDFNNVSTEGYIWGNDYSPLLAHIEKIGNNNGKFDLIILSDLVFNHTEHHKLLQTTKDLLAEKGQALVVFSPHRPKLLEKDLEFFELAKNEFHLVPQLIEMVNWKPMFDEDEETIEVRSRVYAYYLTHEK",
    "soluble on expression in E. coli": "not soluble"
  },
  {
    "Primary sequence": "MENGHLAKVDLTKKIESKSKYNKKLEKYQRRLLALQQILKEEKIAVMLVMEGWDAAGKGGAIKRVTEHLDPRGFQVDPIGAPAPHEKRYHYLQRFWRKIPQYGQITIFDRSWYGRVLVERVEGFATKEEWMRAYDEINDFEKLLTDDHYIIGKFFYHISKEEQLKRFKDREKNPLKRWKITDEDWRNREKWDEYVEAMEDMFEKTSKPNAKWHIIESNDKLYARVKTLKIIISFIEDYFLEHGIELPSYYYEMKEDIEVLQDVGVKE",
    "soluble on expression in E. coli": "not soluble"
  }
]

====

Experiment: soluble on expression in E. coli; label from the status in PepcDB or PDB records
Measurement type: soluble on expression in E. coli

Use these answered entries as a reference point.
[
  {
    "Primary sequence": "MKIAIIGLGLMGGSLGLCLKENKLISCVYGMDLSKENEKDALQLGLIHELIEFKDLALCDMIFVATPVNAIIEILQKLVDLPSNVTIIELGSTKRKIIESLPKNLIKQTLFAHPMTGTENSGPKAAFKELYKDAVCVLCDSEIADDLHQKRAVEIFSHLGMKIVFMDSKAHDHHAAIISHLPHVISFSLANFVMKEEDKRNIVHLAGGSFKGMSRIAKSSPQMWESIFLQNKDNLLSSIDFFQQELERCKQMIQLDKNDELREWMKQANTLREILMGHHHHHHSH",
    "Measurement type": "soluble on expression in E. coli",
    "Measured value": "soluble"
  },
  {
    "Primary sequence": "MAEPWGNELASAAARGDLEQLTSLLQNNVNVNAQNGFGRTALQVMKLGNPEIARRLLLRGANPDLKDRTGNAVIHDAARAGFLDTLQTLLEFQADVNIEDNEGNLPLHLAAKEGHLRVVEFLVKHTASNVGHRNHKGDTACDLARLYGRNEVVSLMQANGAGGATNLQ",
    "Measurement type": "soluble on expression in E. coli",
    "Measured value": "soluble"
  },
  {
    "Primary sequence": "VPLPVPDFTASPMTISVGESVQFQDQTTNNPTNWEWTFEGGQPAMSTEQNPLVSYSHPGQYDVTLKVWNASGSNTITKEKFITVNAVMPVAEFVGTPTEIEEGQTVSFQNQSTNATNYVWIFDGGTPATSEDENPTVLYSKAGQYDVTLKAISASGETVKTKEKYITVKKAPVPA",
    "Measurement type": "soluble on expression in E. coli",
    "Measured value": "not soluble"
  },
  {
    "Primary sequence": "MSSLAKLGYFFDEKGVLKTEKDKKPFKFTTQEDYEELGEAVDLEVYELLETRCGLKRKALKLPGKTDEDEDLSFIFVSKNFKKAANLLVLIHGSGVVRAGQWARRLIINDNLECGTQIPYIERAIENGWGVVVMNTNLNESKDQDLKYSRTPVEHAETVWIACIEPSNAKSIYVVAHSRGGYDTASVLKKFGGDDRISKICLTDSPWFEFPKSCAQRARPLFVVNFLAHGALNSPSYKVREYREGNVAELWAGTQIHEWSSHCAIDAVFHILETEMTPSNYAEVMEEAKKLVVKSENSKESDDEAPKSKKICV",
    "Measurement type": "soluble on expression in E. coli",
    "Measured value": "not soluble"
  },
  {
    "Primary sequence": "MGSDKIHHHHHHMFTTQIHLKVLAMMLLCGLLNACSQTPQQCSSAIITTWSSAHSQITQDITTLSSTEFQGRKTDSEGARLTQAYLITRFTEMGLQPWQPNFAVPFSFQHQFSTVSGVNIIATIAAKTRSNRWRVITAHYDHLGQTANKMYPGADDNASGIAGMMAIAAQWQENPPLDDVNLMIVATDAEEPGLYGSYALVTLLQQYPLMDIELSVNLDMIGHPDRRRAIYMEGQKNLSNFESIKPLLMQQTQLCIRTHHTNLLSGRMKKSDWLRASDHYPFHKAGYSWVYFGVPPHAQYHTADDTIATLDIDFIVAVAETVYQMLSIDKLTKAP",
    "Measurement type": "soluble on expression in E. coli",
    "Measured value": "not soluble"
  }
]

// next entry
Which soluble on expression in E. coli value belongs to MQAYRGTGKTSQLISQKKPISILILGVDQGIEGRHDRGNSDTMILATMNPEKKEATMTSIPRDLLADIKGDGRGEGKYYMFRANSAYQVGGSKGATRTVKALLNTPVNYYMEVNMKALESMVEALGGVDVNVPFTFTYHTHFRKGKQHLNGKEALDYVRMRKEDPKGDYGRQMRQRQVINDIVRKGMSVNSITNYRKILKVFAKYVKTNLTFDDMLSIAMNYRGCTQNIKSGYIQGHNVWIGAAAMQVASTKELQRVSDLVRSSLGLKQEKLEHHHHHH ?
soluble

====

Experiment: soluble on expression in E. coli; label from the status in PepcDB or PDB records

[
  {
    "Primary sequence": "MPTDIFSFKQFDIDQTGCAMRVGTDGVLLGAWAGEDAAGSIPQHCLDIGTGTGLIALMLAQRFPQARVQGIEIDPIAAECARANAAASPFSDRIVIASGDILDSSLESLIGNQRFDLIVSNPPFFKSSMHAPDRQRTMARHEETLPLEKLICRASELLSPQGRLALITPRDRLKDLRLYAATYRLVSSRLTEVRTLPHKEPKRLLSEWRPADTAIDRSPFTDTLIIHPATGYYSPEYVRLTEPFYTTSFRILAVG",
    "soluble on expression in E. coli": "soluble"
  },
  {
    "Primary sequence": "PRTRECDYCGTDIEPGTGTMFVHKDGATTHFCSSKCENNADLGREARNLEWTDTARGEAGEAEDEA",
    "soluble on expression in E. coli": "soluble"
  },
  {
    "Primary sequence": "AHHHHHHGSKLEIRDLSVGYDKPVLERITMTIEKGNVVNFHGPNGIGKTTLLKTISTYLKPLKGEIIYNGVPITKVKGKIFFLPEEIIVPRKISVEDYLKAVASLYGVKVNKNEIMDALESVEVLDLKKKLGELSQGTIRRVQLASTLLVNAEIYVLDDPVVAIDEDSKHKVLKSILEILKEKGIVIISSREELSYCDVNENLHKYSTKIDKKD",
    "soluble on expression in E. coli": "soluble"
  }
]

====

Experiment: soluble on expression in E. coli; label from the status in PepcDB or PDB records
Measurement type: soluble on expression in E. coli

Use these answered entries as a reference point.
[
  {
    "Primary sequence": "MLNSFKLSLQYILPKLWLTRLAGWGASKRAGWLTKLVIDLFVKYYKVDMKEAQKPDTASYRTFNEFFVRPLRDEVRPIDTDPNVLVMPADGVISQLGKIEEDKILQAKGHNYSLEALLAGNYLMADLFRNGTFVTTYLSPRDYHRVHMPCNGILREMIYVPGDLFSVNHLTAQNVPNLFARNERVICLFDTEFGPMAQILVGATIVGSIETVWAGTITPPREGIIKRWTWPAGENDGSVALLKGQEMGRFKLGSTVINLFAPGKVNLVEQLESLSVTKIGQPLAVSTETFVTPDAEPAPLPAEEIEAEHDASPLVDDKKDQVMGHHHHHHSH",
    "soluble on expression in E. coli": "not soluble"
  },
  {
    "Primary sequence": "GPGSMSTPNLDALLGVPLAAELVARAGGLLALCKLSDAALRMLGTEEFQSIASSSRARQLHAGLLLKAPLFTNAFGDEEEVDTTDRKAAQKGAAQLGRKCALVAKADLAGAFSDGSLGEAEKEKLNAAFTRLLAEGKVTAEDTQALAAPFVYVHGDAAKHRRGGVKERKKRESQQESISVVARATQRVRMGVSEEEQVQQLLQREDIRSEFAKERAQQLLKESRKRARESVHDEYDDLQNISL",
    "soluble on expression in E. coli": "not soluble"
  },
  {
    "Primary sequence": "VSIKKSSGLNFDNTAIAINAGKGLEFDTNTSESPDINPIKTKIGSGIDYNENGAMITKLGAGLSFDNSGAITIGNKNDDKLTLWTTPDPSPNCRIHSDNDCKFTLVLTKCGSQVLATVAALAVSGDLSSMTGTVASVSIFLRFDQNGVLMENSSLKKHYWNFRNGNSTNANPYTNAVGFMPNLLAYPKTQSQTAKNNIVSQVYLHGDKTKPMILTITLNGTSESTETSEVSTYSMSFTWSWESGKYTTETFATNSYTFSYIAQE",
    "soluble on expression in E. coli": "soluble"
  },
  {
    "Primary sequence": "MMPSQITRSSHSSLPEVAPASGDATGVSEQTPQQARTVAFFSSGELAVAFGRTSAAPEQDSVRLLSALQRELDKQHPSWHTVAQLCQSLAEVGTTEQGWHQLASEDQLPALRELLDRCTHRLADMPAAHASHDSLSQACEGLRTARLHQSVARLTARPSSLARAMADLLTLTHLDPETLGAEPPVISSYTLFSHFVRTAKQRTADLNDSLQRQPDAVVSLLRSHADTLNDLEMLPGALQALTENCQDAPARNELRELAEVAGALLQLLLEHDLLPRLEEISIEPGEA",
    "soluble on expression in E. coli": "not soluble"
  },
  {
    "Primary sequence": "EDDEDYGDLGGCPFLVAENKTGYPTIVACKQDCNGTTETAPNGTRCFSIGDEGLRRMTANLPYDCPLGQCSNGDCIPKETYEVCYRRNWRDKKNHHHHHH",
    "soluble on expression in E. coli": "soluble"
  }
]

// next entry
Which soluble on expression in E. coli value belongs to MTKIWTRDGFAENDPWVIETEEVKATGEQKPVLPLADFLVRAAESNDIGLGVLISPADDVNRLEPYLDRIDLVAVSFPAFNDGRGFSHASLLRSRLGFAGEVRAVGDVLIDQVPLMLRTGFTSFAVTNETAIRRLSENRLPEITVYYQPTALPATGGEAYSWRRRAAQ ?
not soluble
